TESTED ON: FROUNT-CCR2 interaction (Homo sapiens, UniProt Q9BW27)
Construct: made in house
Sequence (Q9BW27 500-656): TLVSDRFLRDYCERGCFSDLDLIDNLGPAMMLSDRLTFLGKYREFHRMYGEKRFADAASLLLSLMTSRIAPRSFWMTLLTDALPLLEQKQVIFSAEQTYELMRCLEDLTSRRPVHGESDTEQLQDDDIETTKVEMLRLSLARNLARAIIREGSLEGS
ASSAY OVERVIEW: HTRF binding inhibition assay, FROUNT-CCR2 interaction
PROTOCOL CONDITIONS: HTRF; read-out: FROUNT inhibition (IC50 against FROUNT-CCR2)
MEASURED ENDPOINT: pIC50
Reminder that pIC50 means the negative base-10 logarithm of the concentration expressed in mol/L.

| QUERY SMILES | pIC50 |
| --- | --- |
| CCN(CC)C(=S)SSC(=S)N(CC)CC | 7.38 |

Now, please, on to the next compound.
Task: Looking for the measured pIC50 of CCN(CC)C(=S)[S-].CCN(CC)C(=S)[S-].CCN(CC)C(=S)[S-].[Fe+3] , can you help?
Result: 8.04

---

TESTED ON: p53-MDM2 interaction (Homo sapiens)
Sequence (Q00987 whole entry): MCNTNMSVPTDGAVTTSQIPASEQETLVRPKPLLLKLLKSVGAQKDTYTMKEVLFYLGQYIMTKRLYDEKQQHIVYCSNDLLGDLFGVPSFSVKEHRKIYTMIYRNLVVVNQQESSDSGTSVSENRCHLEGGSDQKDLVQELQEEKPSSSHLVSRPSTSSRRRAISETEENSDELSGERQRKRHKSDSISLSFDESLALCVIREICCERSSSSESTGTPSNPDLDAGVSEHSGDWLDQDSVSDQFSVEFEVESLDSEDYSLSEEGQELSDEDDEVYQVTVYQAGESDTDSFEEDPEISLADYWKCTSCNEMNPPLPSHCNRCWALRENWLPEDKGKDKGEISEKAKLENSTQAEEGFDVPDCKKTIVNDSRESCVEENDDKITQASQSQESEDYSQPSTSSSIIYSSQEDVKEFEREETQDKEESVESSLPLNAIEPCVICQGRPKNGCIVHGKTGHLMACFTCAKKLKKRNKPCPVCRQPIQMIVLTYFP
ASSAY OVERVIEW: HTRF binding inhibition assay, p53-MDM2 control interaction
PROTOCOL CONDITIONS: p53-MDM2 control interaction
pIC50: −log10 of the molar value.
Entries annotated with measured pIC50

| COMPOUND | TESTED ON | pIC50 |
| --- | --- | --- |
| CCN(CC)C(=O)S(C)(=O)=O [Me-DTC sulfone] | p53-MDM2 interaction (Homo sapiens) | < 6.00 |
| CCN(CC)C(=S)SSC(=S)N(CC)CC [DSF, disulfiram] | p53-MDM2 interaction (Homo sapiens) | < 6.00 |

Task: Looking for the measured pIC50 of CCN(CC)C(=O)[S+](C)[O-] (stereo not drawn) [Me-DTC sulfoxide] , can you help?
Result: < 6.00

src = patent US10722480B2
